- Assay target: UniProtKB P35610
- Sequence (P35610 whole entry): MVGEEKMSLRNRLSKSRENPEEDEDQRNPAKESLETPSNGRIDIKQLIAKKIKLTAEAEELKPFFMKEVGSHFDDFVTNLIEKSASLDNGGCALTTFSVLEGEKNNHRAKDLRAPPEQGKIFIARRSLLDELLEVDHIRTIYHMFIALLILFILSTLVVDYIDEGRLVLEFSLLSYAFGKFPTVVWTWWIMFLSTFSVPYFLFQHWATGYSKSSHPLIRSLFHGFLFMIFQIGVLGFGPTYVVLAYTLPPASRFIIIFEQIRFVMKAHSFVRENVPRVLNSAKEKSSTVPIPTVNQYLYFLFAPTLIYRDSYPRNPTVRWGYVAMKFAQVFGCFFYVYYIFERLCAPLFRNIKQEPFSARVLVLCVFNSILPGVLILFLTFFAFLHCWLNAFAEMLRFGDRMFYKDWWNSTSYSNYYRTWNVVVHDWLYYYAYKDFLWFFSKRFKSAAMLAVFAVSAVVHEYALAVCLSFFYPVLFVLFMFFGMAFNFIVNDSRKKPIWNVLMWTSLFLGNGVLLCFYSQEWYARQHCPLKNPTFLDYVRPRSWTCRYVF
Reported endpoint: IC50 (nM)
A number alone suffices; assume nM.

stdin: Requested field: IC50. Item: CCOC(=O)c1c(C(=O)OCC)c2c(-c3ccccc3)cc(N3CCOCC3)nn2c1C1CC1
stdout: 3250

stdin: Again, but for CCCc1c(-c2nc(-c3ccccc3)no2)c(C(=O)OCC)c2c(-c3ccccc3)cc(N3CCOCC3)nn12
stdout: 1590

stdin: Again, but for CCCc1c(-c2nc(CCO)no2)c(C(=O)OCC)c2c(-c3ccccc3)cc(N3CCOCC3)nn12
stdout: 1050

stdin: Again, but for CCOC(=O)c1c(C(=O)OCC)c2c(-c3ccccc3)cc(N3CCOCC3)nn2c1C
stdout: 2590

stdin: Again, but for CCOC(=O)c1c(C(=O)OCC)c2c(-c3ccccc3)cc(N3CCOCC3)nn2c1CCCOC
stdout: 2560

stdin: Again, but for CCCc1c(C(=O)OCC)c(C(=O)OCC)c2c(-c3ccccc3)cc(N3CCCC3)nn12
stdout: 1300

stdin: Again, but for CCCc1c(C(=O)OCC)c(C(=O)OCC)c2c(-c3ccccc3F)cc(N3CCOCC3)nn12
stdout: 1490

stdin: Again, but for CCOC(=O)c1c(C(=O)OCC)c2c(-c3ccccc3)cc(N3CCOCC3)nn2c1-c1ccc(N)cc1
stdout: 1050

stdin: Again, but for CCCc1noc(-c2c(C(=O)OCC)c3c(-c4ccccc4)cc(N4CCOCC4)nn3c2CCC)n1
stdout: 260
